molecular target: human PFKFB3 (Homo sapiens, UniProt Q16875)
Sequence (Q16875 whole entry): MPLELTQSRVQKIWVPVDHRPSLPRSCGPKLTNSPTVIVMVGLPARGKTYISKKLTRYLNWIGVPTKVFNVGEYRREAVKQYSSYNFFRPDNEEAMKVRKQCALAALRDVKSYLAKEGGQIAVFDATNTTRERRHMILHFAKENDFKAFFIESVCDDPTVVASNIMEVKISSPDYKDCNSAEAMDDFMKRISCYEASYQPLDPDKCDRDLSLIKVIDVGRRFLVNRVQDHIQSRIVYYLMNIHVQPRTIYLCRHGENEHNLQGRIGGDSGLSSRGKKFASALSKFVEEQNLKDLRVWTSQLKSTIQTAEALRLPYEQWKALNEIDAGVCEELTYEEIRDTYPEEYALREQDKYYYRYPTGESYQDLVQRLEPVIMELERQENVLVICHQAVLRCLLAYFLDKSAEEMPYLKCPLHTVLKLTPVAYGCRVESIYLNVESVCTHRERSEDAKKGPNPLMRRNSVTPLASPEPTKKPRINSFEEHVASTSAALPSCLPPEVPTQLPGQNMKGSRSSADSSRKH
pKi: −log10 of the molar value.
recorded_metric: pKi

>  <compound_string>
O=c1c(-c2ccc(O)cc2)coc2c(O)c(O)ccc12

>  <recorded_metric>
pKi

>  <observed_result>
6.62

$$$$
>  <compound_string>
O=c1cc(-c2ccc(O)cc2)oc2c(O)c(O)c(O)c(O)c12

>  <recorded_metric>
pKi

>  <observed_result>
5.89

$$$$

---

Observed IC50, system human PFKFB3 (Homo sapiens).

>  <compound_string>
O=c1c(-c2ccc(O)cc2)coc2c(O)c(O)ccc12

>  <IC50, nM>
670

$$$$
>  <compound_string>
O=c1cc(-c2ccc(O)cc2)oc2c(O)c(O)c(O)c(O)c12

>  <IC50, nM>
2970

$$$$
